- Test system: Pseudomonas aeruginosa GN 315
- experimental details: MIC, standard serial dilution method
- Format: cell-based
- condition label: GN315; Pseudomonas aeruginosa GN 315; resistance mechanism AAC(6'); Mueller-Hinton agar, 37° C; read-out: MIC
experimental readout: MIC (µg/mL)

INSERT INTO measurements (compound, relation_sign, observed) VALUES
  ('NC[C@H]1O[C@H](O[C@H]2[C@H](O)[C@@H](O[C@H]3O[C@H](CO)[C@@H](O)[C@H](N)[C@H]3O)[C@H](N)C[C@@H]2N)[C@H](O)[C@@H](O)[C@@H]1O [KMA, kanamycin A, reference compound]', '>', 100),
  ('NC[C@H]1O[C@H](O[C@H]2[C@H](O)[C@@H](O[C@H]3O[C@H](CO)[C@@H](O)[C@H](N)[C@H]3O)[C@H](N)C[C@@H]2N)[C@H](N)C[C@@H]1O [TOB, 3''-deoxykanamycin B, reference compound]', '=', 25),
  ('CN[C@@H]1[C@@H](O)[C@@H](O[C@H]2[C@H](NC(=O)[C@@H](O)CCN)C[C@H](N)[C@@H](O[C@H]3O[C@H]([C@@H](C)NC)CC[C@H]3N)C2(F)F)OC[C@]1(C)O', '=', 100),
  ('CN[C@@H]1[C@@H](O)[C@@H](O[C@@H]2[C@@H](O)[C@H](O[C@H]3O[C@H]([C@@H](C)N)CC[C@H]3N)[C@@H](N)C[C@H]2N)OC[C@]1(C)O [Genta-C2, gentamicin C2, reference compound]', '=', 3.12);
